Overview of reported Ki across a group of molecules:
# experimental system: Urotensin-2 receptor (Homo sapiens, UniProt Q9UKP6)
# Sequence (Q9UKP6 whole entry): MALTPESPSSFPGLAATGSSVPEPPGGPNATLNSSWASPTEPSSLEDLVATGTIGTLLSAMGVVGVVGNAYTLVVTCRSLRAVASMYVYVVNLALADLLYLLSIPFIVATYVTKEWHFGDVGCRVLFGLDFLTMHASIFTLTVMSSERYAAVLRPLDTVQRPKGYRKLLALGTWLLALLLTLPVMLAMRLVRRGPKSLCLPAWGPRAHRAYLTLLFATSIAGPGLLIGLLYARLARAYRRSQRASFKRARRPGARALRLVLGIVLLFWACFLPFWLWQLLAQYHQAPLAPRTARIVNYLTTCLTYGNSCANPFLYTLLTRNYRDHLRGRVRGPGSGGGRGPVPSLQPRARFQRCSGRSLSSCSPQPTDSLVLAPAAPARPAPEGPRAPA
# method: Displacement of [125I]urotensin-2 from human recombinant UT receptor expressed in CHO-K1 cells by scintillation counting method
Peptide text beside a SMILES is read from it.
Could you give me the number in nM? Just the number is fine.

Here are 4 molecules together with their reported answers.
molecule	Ki / nM
CC(C)[C@H](NC(=O)[C@@H]1CSSC(C)(C)[C@H](NC(=O)[C@@H](N)CC(=O)O)C(=O)N[C@@H](Cc2ccccc2)C(=O)N[C@@H](Cc2c[nH]c3ccccc23)C(=O)N[C@@H](CCCCN)C(=O)N[C@@H](Cc2ccc([N+](=O)[O-])cc2)C(=O)N1)C(=O)O (HELM PEPTIDE1{D.[Pen].F.W.K.[O=C([C@H](Cc1ccc([N+](=O)[O-])cc1)N[*:1])[*:2]].C.V}$PEPTIDE1,PEPTIDE1,2:R3-7:R3$$$V2.0)	1.78
CC(C)[C@H](NC(=O)[C@@H]1CSSC(C)(C)[C@H](NC(=O)[C@@H](N)CC(=O)O)C(=O)N[C@@H](Cc2ccccc2)C(=O)N[C@H](Cc2c[nH]c3ccccc23)C(=O)N[C@@H](CCCN)C(=O)N[C@@H](Cc2nc3ccccc3s2)C(=O)N1)C(=O)O	12.9
CC(C)[C@H](NC(=O)[C@@H]1CSSC(C)(C)[C@H](NC(=O)[C@@H](N)CC(=O)O)C(=O)N[C@@H](Cc2ccccc2)C(=O)N[C@@H](Cc2c[nH]c3ccccc23)C(=O)N[C@@H](CCCCN)C(=O)N[C@@H](Cc2ccc3ccccc3c2)C(=O)N1)C(=O)O (HELM PEPTIDE1{D.[Pen].F.W.K.[O=C([C@H](Cc1ccc2ccccc2c1)N[*:1])[*:2]].C.V}$PEPTIDE1,PEPTIDE1,2:R3-7:R3$$$V2.0)	2
CC(C)[C@H](NC(=O)[C@@H]1CSSC(C)(C)[C@H](NC(=O)[C@@H](N)CC(=O)O)C(=O)N[C@@H](Cc2ccccc2)C(=O)N[C@H](Cc2c[nH]c3ccccc23)C(=O)N[C@@H](CCCN)C(=O)N[C@@H](Cc2ccc3ccccc3c2)C(=O)N1)C(=O)O	0.724

Problem: If you can, please state the reported Ki value of CC(C)[C@H](NC(=O)[C@@H]1CSSC(C)(C)[C@H](NC(=O)[C@@H](N)CC(=O)O)C(=O)N[C@@H](Cc2ccccc2)C(=O)N[C@@H](Cc2c[nH]c3ccccc23)C(=O)N[C@@H](CCCCN)C(=O)N[C@@H](Cc2ccc(Cl)cc2)C(=O)N1)C(=O)O (HELM PEPTIDE1{D.[Pen].F.W.K.[O=C([C@H](Cc1ccc(Cl)cc1)N[*:1])[*:2]].C.V}$PEPTIDE1,PEPTIDE1,2:R3-7:R3$$$V2.0) .
Result: 1.23

Problem: If you can, please state the reported Ki value of CC(C)[C@H](NC(=O)[C@@H]1CSSC(C)(C)[C@H](NC(=O)[C@@H](N)CC(=O)O)C(=O)N[C@@H](Cc2ccccc2)C(=O)N[C@@H](Cc2c[nH]c3ccccc23)C(=O)N[C@@H](CCCCN)C(=O)N[C@@H](Cc2ccc(C#N)cc2)C(=O)N1)C(=O)O (HELM PEPTIDE1{D.[Pen].F.W.K.[N#Cc1ccc(C[C@H](N[*:1])C(=O)[*:2])cc1].C.V}$PEPTIDE1,PEPTIDE1,2:R3-7:R3$$$V2.0) .
Result: 1.82
